Taken from ChEMBL document CHEMBL2007661.

# study.target: Inhibitor of nuclear factor kappa-B kinase subunit alpha (Homo sapiens) (UniProt O15111)
# Sequence (O15111 whole entry): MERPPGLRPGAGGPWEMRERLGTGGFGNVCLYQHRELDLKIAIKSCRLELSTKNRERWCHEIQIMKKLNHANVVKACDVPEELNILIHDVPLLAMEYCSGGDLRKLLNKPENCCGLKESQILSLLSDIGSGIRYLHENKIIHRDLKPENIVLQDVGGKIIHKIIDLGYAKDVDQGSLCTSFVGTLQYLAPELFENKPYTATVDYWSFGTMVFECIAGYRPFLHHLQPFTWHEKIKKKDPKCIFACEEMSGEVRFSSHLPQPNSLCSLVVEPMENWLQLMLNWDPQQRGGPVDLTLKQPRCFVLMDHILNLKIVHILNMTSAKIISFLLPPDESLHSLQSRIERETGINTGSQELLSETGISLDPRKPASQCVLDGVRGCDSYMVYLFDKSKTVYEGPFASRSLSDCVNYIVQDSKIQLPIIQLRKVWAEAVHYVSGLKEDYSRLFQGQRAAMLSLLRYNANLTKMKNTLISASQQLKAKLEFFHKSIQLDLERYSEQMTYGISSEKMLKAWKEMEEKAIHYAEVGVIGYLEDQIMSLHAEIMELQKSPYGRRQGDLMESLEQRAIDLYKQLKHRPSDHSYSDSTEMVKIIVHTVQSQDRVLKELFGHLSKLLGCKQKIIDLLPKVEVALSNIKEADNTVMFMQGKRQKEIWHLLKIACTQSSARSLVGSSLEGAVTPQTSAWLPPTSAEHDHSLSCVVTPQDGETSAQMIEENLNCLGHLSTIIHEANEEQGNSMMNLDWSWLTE
# measurement.context: at 1 µM
The following molecules are shown together with reported inhibition values.
Write the value in % as a bare number.

Known results for molecules:
>>> print(df.to_string())
                                   molecule  unit_spec  result_number
0  O=C1Nc2ccccc2/C1=C/Nc1ccc2[nH]c(=O)[nH]c2c1          %              1
1  COc1cc2c(cc1Nc1nc(N3CCc4ccccc43)c3cc[nH]c3n1)N(C(=O)CN(C)C)CC2          %              3
2  CC(=O)NCc1cccc(C#Cc2cncnc2Nc2ccc(OCc3cccc(F)c3)c(Cl)c2)c1          %              1
3       COc1cc(Nc2ncc(-c3ccccc3)o2)cc(OC)c1          %              1
4  NS(=O)(=O)c1ccc(N/N=C2\C(=O)Nc3cccc(CCc4ccncc4)c32)cc1          %              5
5  [O-][S+]1CCN(Cc2ccc(-c3ccc4ncnc(Nc5ccc(OCc6ccccc6)c(F)c5)c4c3)o2)CC1          %              5
6      Nc1nc(-c2ccccn2)c(-c2ccc3ncccc3n2)s1          %              5
7  COc1cc2ncn(-c3cc(OCc4ccccc4Cl)c(C(N)=O)s3)c2cc1OC          %             -1
8  CC(=O)Nc1cccc(C#Cc2cncnc2Nc2ccc(OCc3cccc(F)c3)c(Cl)c2)c1          %             -6
9   COc1cc(C=NNc2ncnc3c2cnn3Cc2ccccc2)ccc1O          %              4

Look up inhibition for this molecule: "CCCNc1cccc(-n2ncc3c(N/N=C/c4ccncc4)ncnc32)c1"
4

Fill in the blank: the reported inhibition of "COc1ccc2cc(-c3c(-c4ccncc4)nc(-c4ccc(S(C)(=O)=O)cc4C)n3C)ccc2c1" is ____.
5

Look up inhibition: "O=C(O[C@H]1CN[C@H](C#Cc2cc3ncnc(Nc4ccc5c(ccn5Cc5cc(F)ccc5F)c4)c3s2)C1)N1CCOCC1"
-1

Which inhibition reading was recorded for the molecule "CCc1cccc(NC(=O)Nc2ccc(Oc3ccc4nc(NC(=O)OC)[nH]c4c3)cc2)c1" ?
-10

What does the record list as inhibition for "COc1cc(/C=N/Nc2ncnc3[nH]ncc23)ccc1O" ?
6

Please give the measured inhibition for this molecule: "O=C(Nc1ccc(Oc2ccc3[nH]c(NC(=O)c4ccccc4)nc3c2)cc1)Nc1cc(C(F)(F)F)ccc1F"
11

Quick check: inhibition of "NS(=O)(=O)c1ccc(N/N=C2\C(=O)Nc3ccc(Cl)cc32)cc1" ?
2

Given the entry "Cc1nc(-c2ccccc2)n2nc(NCCCN3CCOCC3)ncc12" , report its measured inhibition.
1

Query (molecule): "NS(=O)(=O)c1ccc(N/N=C2\C(=O)Nc3ccc(C(=O)NCc4ccncc4)cc32)cc1" ; field requested: inhibition
0

I'd like to know its inhibition. The molecule in question is "O=C(Nc1n[nH]c2cc(-c3cc(F)ccc3F)ccc12)C1CC1"
2

Query (molecule): "Cc1c2ccc(N(C)c3ccnc(Nc4cccc(S(N)(=O)=O)c4)n3)cc2nn1C" ; field requested: inhibition
2

Can you look up the measured inhibition of "CC1(C)CC(n2cnc(-c3ccc(F)cc3)c2-c2ccnc(N)n2)CC(C)(C)N1" for me?
3

Param item = "CCOc1ccc2c(-c3ccnc(Nc4cccc(C(F)(F)F)c4)n3)cnn2n1" ; retrieve measured inhibition.
1
